Let's go through some recorded IC50 values for BTK enzyme (Homo sapiens, UniProt Q06187) together.

Find the measured IC50 of CC(C)(C)OC1CN(C(=O)NC2CCCCc3cc(-c4cc(Nc5cc6n(n5)CCOC6)ncn4)ccc32)C1 (stereo not drawn) with BTK enzyme (Homo sapiens, UniProt Q06187) as test system.
Sequence (Q06187 whole entry): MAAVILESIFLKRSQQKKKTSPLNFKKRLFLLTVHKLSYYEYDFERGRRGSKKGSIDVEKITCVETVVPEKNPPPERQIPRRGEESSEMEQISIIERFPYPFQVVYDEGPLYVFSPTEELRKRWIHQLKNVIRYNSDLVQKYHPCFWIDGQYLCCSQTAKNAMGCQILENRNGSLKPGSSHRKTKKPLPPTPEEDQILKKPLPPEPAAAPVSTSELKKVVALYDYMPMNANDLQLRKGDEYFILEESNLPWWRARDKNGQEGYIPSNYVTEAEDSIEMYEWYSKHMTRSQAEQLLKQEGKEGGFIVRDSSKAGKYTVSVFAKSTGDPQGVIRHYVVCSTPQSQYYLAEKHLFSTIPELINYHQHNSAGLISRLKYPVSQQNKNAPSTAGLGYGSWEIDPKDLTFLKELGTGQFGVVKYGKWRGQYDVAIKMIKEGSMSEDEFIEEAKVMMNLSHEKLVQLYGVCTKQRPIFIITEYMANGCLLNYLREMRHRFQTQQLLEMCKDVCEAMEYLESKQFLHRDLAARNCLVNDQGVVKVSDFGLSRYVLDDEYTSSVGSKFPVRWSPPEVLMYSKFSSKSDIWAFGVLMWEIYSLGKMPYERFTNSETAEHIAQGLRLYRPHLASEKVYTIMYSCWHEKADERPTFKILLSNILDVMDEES
< 0.01 µM

With BTK enzyme (Homo sapiens, UniProt Q06187) as the test system, provide measured IC50 for this compound: `COCCc1cc(-c2ccnc(Nc3cnn(C)c3)n2)ccc1CNC(=O)N1CC(OC(C)(C)C)C1`
< 0.01 µM

====

Assay system BTK enzyme (Homo sapiens, UniProt Q06187); read-out recorded as IC50.

Tell me IC50 of COCCn1cc(Nc2nccc(-c3ccc(CNC(=O)N4CC(OC(C)(C)C)C4)c(C(F)(F)F)c3)n2)cn1 [Example I-204] when tested on BTK enzyme (Homo sapiens, UniProt Q06187).
< 10 nM

====

# target under test: BTK (phospho-BTK) in human whole blood (Homo sapiens)
# test method notes: In vitro PD assay in human whole blood (pBTK assay)
Parameter: IC50. Scope: all listed entries.

Examples from the recorded data:
>  <compound>
Cc1cc(-c2ccnc(Nc3cnn(CCO)c3)n2)ccc1CNC(=O)N1CC(OC(C)(C)C)C1 [Example I-214]

>  <IC50>
< 500 nM

$$$$
>  <compound>
Cc1cc(-c2ccnc(Nc3cnn(C)c3)n2)ccc1CNC(=O)c1ccn(C(C)(C)C)n1 [Example I-252]

>  <IC50>
< 500 nM

$$$$
>  <compound>
Cc1cc(-c2ccnc(Nc3cnn(C[C@@H](N)C(=O)O)c3)n2)ccc1CNC(=O)c1cnc(C(C)(C)C)s1 [Example I-132]

>  <IC50>
1500 to 10000 nM

$$$$
>  <compound>
Cn1cc(Nc2nccc(-c3cc(Cl)c(CNC(=O)c4cnc(C(C)(C)C)s4)cc3F)n2)cn1 [Example I-118]

>  <IC50>
< 500 nM

$$$$
>  <compound>
CCN1CCn2nc(Nc3nccc(-c4ccc(CNC(=O)c5cnc(C(C)(C)C)s5)c(C)c4)n3)cc2C1 [Example I-56]

>  <IC50>
500 to 1500 nM

$$$$
>  <compound>
Cc1cc(-c2cc(Nc3cc4n(n3)CCN(CCO)C4)ncn2)ccc1CNC(=O)c1cnc(C(C)(C)C)s1 [Example I-271]

>  <IC50>
< 500 nM

$$$$

Please list IC50 recorded for the compound CCOC1CN(C(=O)NC2CCCCc3cc(-c4ccnc(Nc5cnn(C)c5)n4)ccc32)C1 (stereo not shown) [Example I-331]
< 500 nM

Provide one value: measured IC50 of COCCn1cc(Nc2nccc(-c3ccc4c(c3)CCCCC4NC(=O)N3CC(OC(C)(C)C)C3)n2)cn1 (stereo not shown) [Example I-175]
< 500 nM

Assign IC50 to the following record: CC(C)CN1CCN(Cc2ccc(-c3ccnc(Nc4cnn(CCO)c4)n3)cc2C(F)(F)F)C(=O)C1 [Example I-310]
< 500 nM

Tell us which IC50 value is on record for Cc1cc(-c2cc(Nc3cc4n(n3)CCN(C)C4)ncn2)ccc1CNC(=O)c1cnc(C(C)(C)C)s1 [Example I-63]
< 500 nM

====

# target under test: BTK (phospho-BTK) in human whole blood (Homo sapiens, UniProt Q06187)
# test method notes: In vitro PD assay in human whole blood (pBTK assay)
# IC50 per entry

>  <molecule>
Cc1cc(-c2ccnc(Nc3cnn(CCO)c3)n2)ccc1CNC(=O)c1cc2c(s1)CCOC2

>  <IC50>
0.5 to 1.5 µM

$$$$
>  <molecule>
Cc1cc(-c2cc(Nc3cc4n(n3)CCOC4)ncn2)ccc1CNC(=O)N1CC(OC(C)C)C1

>  <IC50>
< 0.5 µM

$$$$
>  <molecule>
COCCn1cc(Nc2nccc(-c3ccc(CNC(=O)N4CC(OC(C)(C)C)C4)c(C(F)(F)F)c3)n2)cn1

>  <IC50>
< 0.5 µM

$$$$

Please tell me the measured IC50 for `Cc1cc(-c2ccnc(Nc3cnn(C)c3)n2)ccc1CNC(=O)N1CCN(C(C)(C)C)CC1` ; system: BTK (phospho-BTK) in human whole blood (Homo sapiens, UniProt Q06187).
1.5 to 10 µM

Report measured IC50 on BTK (phospho-BTK) in human whole blood (Homo sapiens, UniProt Q06187); entry: Cc1cc(-c2ccnc(Nc3cnn(C)c3)n2)ccc1CNC(=O)N1CCOC(C(C)C)C1 (stereo not drawn)
1.5 to 10 µM
